- subject_of_test: pooled human IgG
measured_quantity: Enzyme Activity Endpoint Assay (purified): IgG (ng/µL)
One number for each entry, in ng/µL.

# protein, measured_number
data = [
    ("PRT-228 (protein) MEVVEVWPYGQNPNGKTEILSQTEDSESLQRLRDIEDFQAEKKMQNVVYTKWLDGVDVKDHDFRKIVDGNIAYYATPLLNGRGFYDINKDFNRDSDKCAAAVAANMFHYWLDINRDNVDRFLRQNPEKHGIIELPDGQLKLSDFLNTYESDHGYRDKSKLFDFISNNFNGPVWTDKLLDNYINGYAYNYKYGRTIEDPTKNTSKINFFKEVFNEKILTNNHSIRNQNEFSDLLSEALYTGKAIGLSYGPAGLRHSLGHIISVWGADLDADGNVVAIYVTDSDDKKLTIGDERVGLKRYKISTDDENRLRLTAYEETHNTGGQIRGLWTLDTGKYAWADYFDKTEQTGTDQAEQLEHHHHHH", 767),
]

Now for another entry.
Query: Enzyme Activity Endpoint Assay (purified): IgG; subject: PRT-71 (protein) MANQEIRYSEVTPYHVTSVWTKGVTPPANFTQGEDVFHAPYVANQGWYDITKTFNGKDDLLCGAATAGNMLHWWFDQNKEEIEAYLKKHPEKQKIMFGDQELLDVRKVINTKGSQTNSELFNYFRDKAFPGLSARRLGVMPDLVLDMFINGYYLNVYKTQTTDVNRTYQEKDKRGGIFDAVFTRGDQSKLLTSRHDFKEKNLKEISDLIKKELTEGKALGLSHTYANVRINHVINLWGADFDSNGNLKAIYVTDSDSNASIGMKKYFVGVNSAGKVAISAKEIKEDNIGAQVLGLFTLSTGQDIWNQTN 25

Recorded values, source patent US20250027068.
